# study_target: human GluN1/GluN2B NMDA receptors (Homo sapiens, UniProt Q05586+Q13224)
# Sequence (Q13224 27-1484, other chains not shown): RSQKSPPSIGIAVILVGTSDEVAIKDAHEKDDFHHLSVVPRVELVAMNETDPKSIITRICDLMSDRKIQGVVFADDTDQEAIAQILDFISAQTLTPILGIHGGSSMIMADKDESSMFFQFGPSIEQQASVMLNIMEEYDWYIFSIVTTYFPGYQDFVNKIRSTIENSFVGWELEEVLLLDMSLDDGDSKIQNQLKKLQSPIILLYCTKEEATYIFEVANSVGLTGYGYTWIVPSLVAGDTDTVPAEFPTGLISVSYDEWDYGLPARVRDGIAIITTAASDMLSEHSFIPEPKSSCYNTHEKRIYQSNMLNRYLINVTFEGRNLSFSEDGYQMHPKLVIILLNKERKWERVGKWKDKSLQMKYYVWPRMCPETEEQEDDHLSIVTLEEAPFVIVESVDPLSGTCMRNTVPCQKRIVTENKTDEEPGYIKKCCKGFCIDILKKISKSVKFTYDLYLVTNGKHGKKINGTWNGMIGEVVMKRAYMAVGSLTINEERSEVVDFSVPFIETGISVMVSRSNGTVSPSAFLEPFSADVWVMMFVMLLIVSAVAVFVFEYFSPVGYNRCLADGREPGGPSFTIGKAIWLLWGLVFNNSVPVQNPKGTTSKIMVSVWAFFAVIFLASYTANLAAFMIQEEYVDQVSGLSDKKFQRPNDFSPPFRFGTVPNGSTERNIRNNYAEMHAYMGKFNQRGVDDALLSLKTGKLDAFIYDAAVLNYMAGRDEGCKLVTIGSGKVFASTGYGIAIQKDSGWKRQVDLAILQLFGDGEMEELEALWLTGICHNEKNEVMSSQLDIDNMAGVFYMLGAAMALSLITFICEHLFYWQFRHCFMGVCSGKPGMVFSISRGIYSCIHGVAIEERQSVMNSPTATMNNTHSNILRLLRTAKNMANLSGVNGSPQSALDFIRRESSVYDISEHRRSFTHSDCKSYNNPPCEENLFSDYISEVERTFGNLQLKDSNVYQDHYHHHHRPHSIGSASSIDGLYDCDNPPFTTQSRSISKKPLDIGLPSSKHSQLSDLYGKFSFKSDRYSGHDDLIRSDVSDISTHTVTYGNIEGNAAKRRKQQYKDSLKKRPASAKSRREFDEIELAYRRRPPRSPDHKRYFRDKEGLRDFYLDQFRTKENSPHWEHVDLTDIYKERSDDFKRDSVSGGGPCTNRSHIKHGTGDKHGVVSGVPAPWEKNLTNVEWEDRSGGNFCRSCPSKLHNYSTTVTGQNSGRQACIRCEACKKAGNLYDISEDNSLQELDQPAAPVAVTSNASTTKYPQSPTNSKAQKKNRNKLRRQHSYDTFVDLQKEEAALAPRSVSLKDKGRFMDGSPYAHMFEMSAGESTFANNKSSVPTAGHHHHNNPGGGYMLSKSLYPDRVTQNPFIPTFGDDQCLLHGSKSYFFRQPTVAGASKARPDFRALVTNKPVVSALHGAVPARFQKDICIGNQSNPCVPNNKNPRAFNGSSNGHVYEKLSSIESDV
# test_protocol: Calcium flux (FLIPR) assay on cloned human NR1/GluN2B ion channels expressed in mammalian cells, standard assay
# applied_conditions: glutamate ~EC40 and 10 μM glycine, stable cell line with Tet-On induced expression
pIC50: −log10 of the molar value.
measured_property: pIC50

Please review the following examples before continuing.
compound: CCC(F)(F)Cn1ncc2ncc(-c3ccc(F)c(OC(F)F)c3)cc21 [Example 99]
measured_number: 6.67

compound: O=C(Cn1ncc2ncc(-c3ccc(F)c(C(F)F)c3)cc21)c1ncc(F)cc1F [Example 141]
measured_number: 6.39

I: O=C(Cn1ncc2ncc(-c3ccc(F)c(C(F)F)c3)cc21)c1ccc(F)cn1 [Example 15]
II: OC(Cn1ncc2ncc(-c3cccc(C(F)(F)F)c3)cc21)C1CC1 (racemic) [Example 100]
III: CN1C[C@@H](Cn2ncc3ncc(-c4ccc(F)c(C(F)F)c4)cc32)CC1=O [Example 121]
IV: Cc1cc(-c2cnc3cnn(CC(=O)C4CCC4)c3c2)ccc1F [Example 70]
V: CCC(=O)Cn1ncc2ncc(-c3ccc(Cl)c(OC(F)F)c3)cc21 [Example 41]
Q: Give the ascending ranking of the items by reported pIC50. Note for the reader: the ranking is given by listing the labels in the order requested.
Result: III, II, I, IV, V
(III: 6.16, II: 6.54, I: 6.80, IV: 7.20, V: 7.68)

====

# study_target: human GluN1/GluN2B NMDA receptors (Homo sapiens, UniProt Q05586+Q13224)
# Construct: expressed in transfected cells
# test_protocol: Calcium flux (FLIPR) assay on cloned human NR1/GluN2B ion channels expressed in mammalian cells, standard assay
# Assay type: cell-based
# applied_conditions: glutamate ~EC40 and 10 μM glycine, stable cell line with Tet-On induced expression
# Description: Effects of Test Articles on Cloned Human NR1/GluN2B Ion Channels Expressed in Mammalian Cells NMDA receptors are ion channels that are highly permeable to Ca^2+ ions, rendering it possible to monitor NMDA receptor function using cell-based calcium flux assay. […] The time course of the changes in intracellular calcium is measured using a fluorescent dye and a FLIPR (Fluorometric Imaging Plate Reader) device. […]
pIC50: −log10 of the molar value.
measured_property: pIC50

P: CCC(=O)Cn1ncc2ncc(-c3cc(F)cc(F)c3)cc21
Q: CN1C[C@@H](Cn2ncc3ncc(-c4ccc(F)c(C(F)F)c4)cc32)OC1=O
R: CC[S+]([O-])Cn1ncc2ncc(-c3ccc(Cl)c(OC(F)F)c3)cc21 (racemic)
Q: Parameters: sort_by = pIC50; order = desc; input = items above. # list labels per requested ordering
Result: P, R, Q

====

# study_target: human GluN1/GluN2B NMDA receptors (Homo sapiens, UniProt Q05586+Q13224)
# test_protocol: Calcium flux (FLIPR) assay on cloned human NR1/GluN2B ion channels expressed in mammalian cells, standard assay
# applied_conditions: glutamate ~EC40 and 10 μM glycine, stable cell line with Tet-On induced expression
pIC50: −log10 of the molar value.
measured_property: pIC50

compound: CN1CCC(Cn2ncc3ncc(-c4ccc(F)c(C(F)F)c4)cc32)C1=O (racemic)
study_target: human GluN1/GluN2B NMDA receptors (Homo sapiens, UniProt Q05586+Q13224)
pIC50: 6.52
--
compound: OC(Cn1ncc2ncc(-c3ccc(F)c(C(F)F)c3)cc21)C1CC1 (racemic)
study_target: human GluN1/GluN2B NMDA receptors (Homo sapiens, UniProt Q05586+Q13224)
pIC50: 6.78
--
compound: CC(F)(F)c1cc(-c2cnc3cnn(CC4CNC(=O)O4)c3c2)ccc1F (racemic)
study_target: human GluN1/GluN2B NMDA receptors (Homo sapiens, UniProt Q05586+Q13224)
pIC50: 6.01

P: CC(C)C(=O)Cn1ncc2ncc(-c3ccc(F)c(F)c3F)cc21
Q: CC[S+]([O-])Cn1ncc2ncc(-c3cc(F)c(F)c(F)c3)cc21 (racemic)
Q: Just tell me: smaller pIC50 value, P or Q ? # answer = label of selected item
Result: Q
(Q: 6.13, P: 6.69)
